target: Mu-type opioid receptor (Homo sapiens); experiment: Displacement of [3H]DAMGO from mu opioid receptor expressed in CHO cells after 90 mins by scintillation counting relative to dermorphin; assay type: cell-based
Sequence (P35372 whole entry): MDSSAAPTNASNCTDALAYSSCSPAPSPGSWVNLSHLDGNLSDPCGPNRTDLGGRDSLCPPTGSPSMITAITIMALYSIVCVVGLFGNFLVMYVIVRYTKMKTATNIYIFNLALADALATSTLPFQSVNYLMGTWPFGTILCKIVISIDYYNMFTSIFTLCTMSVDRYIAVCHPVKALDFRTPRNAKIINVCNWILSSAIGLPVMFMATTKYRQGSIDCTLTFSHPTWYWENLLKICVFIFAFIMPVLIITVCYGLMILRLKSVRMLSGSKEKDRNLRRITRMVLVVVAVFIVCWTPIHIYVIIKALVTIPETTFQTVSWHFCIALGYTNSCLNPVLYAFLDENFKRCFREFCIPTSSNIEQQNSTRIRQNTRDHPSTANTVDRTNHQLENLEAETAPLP
Numbered stars: 1 amine (or outer) side, 2 acyl side, 3 side chain; on linkers, the order of the positions; unused ones are H or OH. Square brackets hold non-standard residues; d marks the D form. Peptide text beside a SMILES is read from it. X6 = O=C(CBr)N(CCCC[C@@H](N[*:1])C(=O)[*:2])C(=O)CBr; X1 = O=C(CBr)N(CCC[C@@H](N[*:1])C(=O)[*:2])C(=O)CBr; X7 = CC(=O)N(CCCC[C@@H](N[*:1])C(=O)[*:2])C(C)=O; X8 = CC(=O)N(CCC[C@@H](N[*:1])C(=O)[*:2])C(C)=O; X5 = O=C([C@@H](CCCCN(N=C=S)N=C=S)N[*:1])[*:2]
Use true (1) when the recorded Activity is no lower than 0.9; use false (0) when it is lower.

Here's what some known entries look like.
COMPOUND	TARGET_UNDER_TEST	CLASS_ASSIGNMENT
CC(=O)N(CCC[C@@H](NC(=O)[C@@H](N)Cc1ccc(O)cc1)C(=O)N[C@@H](Cc1ccccc1)C(=O)NCC(=O)N[C@@H](Cc1ccc(O)cc1)C(=O)N1CCC[C@H]1C(=O)N[C@@H](CO)C(=O)O)C(C)=O (H-Y[X8]FGYPS-OH)	Mu-type opioid receptor (Homo sapiens)	false (0)
N[C@@H](Cc1ccc(O)cc1)C(=O)N[C@H](CCCN(C(=O)CBr)C(=O)CBr)C(=O)N[C@@H](Cc1ccccc1)C(=O)NCC(=O)N[C@@H](Cc1ccc(O)cc1)C(=O)N1CCC[C@H]1C(=O)N[C@@H](CO)C(=O)O (H-Y[X1]FGYPS-OH)	Mu-type opioid receptor (Homo sapiens)	true (1)
N[C@@H](Cc1ccc(O)cc1)C(=O)N[C@H](CCCCN(N=C=S)N=C=S)C(=O)N[C@@H](Cc1ccccc1)C(=O)NCC(=O)N[C@@H](Cc1ccc(O)cc1)C(=O)N1CCC[C@H]1C(=O)N[C@@H](CO)C(=O)O (H-Y[X5]FGYPS-OH)	Mu-type opioid receptor (Homo sapiens)	true (1)
N[C@@H](Cc1ccc(O)cc1)C(=O)N[C@H](CCCCN(C(=O)CBr)C(=O)CBr)C(=O)N[C@@H](Cc1ccccc1)C(=O)NCC(=O)N[C@@H](Cc1ccc(O)cc1)C(=O)N1CCC[C@H]1C(=O)N[C@@H](CO)C(=O)O (H-Y[X6]FGYPS-OH)	Mu-type opioid receptor (Homo sapiens)	false (0)

Prompt line: Threshold query (Activity >= 0.9) on CC(=O)N(CCCC[C@@H](NC(=O)[C@@H](N)Cc1ccc(O)cc1)C(=O)N[C@@H](Cc1ccccc1)C(=O)NCC(=O)N[C@@H](Cc1ccc(O)cc1)C(=O)N1CCC[C@H]1C(=O)N[C@@H](CO)C(=O)O)C(C)=O (H-Y[X7]FGYPS-OH)
Response line: false (0)
